system: Fibroblasts (MRC5); assay: Cytotoxicity in MRC5 fibroblasts, 5-day treatment; conditions: read-out: Mean CC50 ± SD in Fibroblasts (MRC5); 5-day treatment
Metric: CC50

Entry Nc1ccn([C@H]2CC[C@@H](CO)O2)c(=O)n1 has what CC50?
> 89 µM

====

molecular target: RNA PolI (Rattus norvegicus, UniProt O54889); construct: complexes were isolated from rat NSN1 cells and HeLa cells, respectively; experiment: RNA PolI inhibition assay; details: NTP analogs 0 to 500 μM; read-out: Mean IC50 ± SD for RNA PolI
Sequence (O54889 whole entry): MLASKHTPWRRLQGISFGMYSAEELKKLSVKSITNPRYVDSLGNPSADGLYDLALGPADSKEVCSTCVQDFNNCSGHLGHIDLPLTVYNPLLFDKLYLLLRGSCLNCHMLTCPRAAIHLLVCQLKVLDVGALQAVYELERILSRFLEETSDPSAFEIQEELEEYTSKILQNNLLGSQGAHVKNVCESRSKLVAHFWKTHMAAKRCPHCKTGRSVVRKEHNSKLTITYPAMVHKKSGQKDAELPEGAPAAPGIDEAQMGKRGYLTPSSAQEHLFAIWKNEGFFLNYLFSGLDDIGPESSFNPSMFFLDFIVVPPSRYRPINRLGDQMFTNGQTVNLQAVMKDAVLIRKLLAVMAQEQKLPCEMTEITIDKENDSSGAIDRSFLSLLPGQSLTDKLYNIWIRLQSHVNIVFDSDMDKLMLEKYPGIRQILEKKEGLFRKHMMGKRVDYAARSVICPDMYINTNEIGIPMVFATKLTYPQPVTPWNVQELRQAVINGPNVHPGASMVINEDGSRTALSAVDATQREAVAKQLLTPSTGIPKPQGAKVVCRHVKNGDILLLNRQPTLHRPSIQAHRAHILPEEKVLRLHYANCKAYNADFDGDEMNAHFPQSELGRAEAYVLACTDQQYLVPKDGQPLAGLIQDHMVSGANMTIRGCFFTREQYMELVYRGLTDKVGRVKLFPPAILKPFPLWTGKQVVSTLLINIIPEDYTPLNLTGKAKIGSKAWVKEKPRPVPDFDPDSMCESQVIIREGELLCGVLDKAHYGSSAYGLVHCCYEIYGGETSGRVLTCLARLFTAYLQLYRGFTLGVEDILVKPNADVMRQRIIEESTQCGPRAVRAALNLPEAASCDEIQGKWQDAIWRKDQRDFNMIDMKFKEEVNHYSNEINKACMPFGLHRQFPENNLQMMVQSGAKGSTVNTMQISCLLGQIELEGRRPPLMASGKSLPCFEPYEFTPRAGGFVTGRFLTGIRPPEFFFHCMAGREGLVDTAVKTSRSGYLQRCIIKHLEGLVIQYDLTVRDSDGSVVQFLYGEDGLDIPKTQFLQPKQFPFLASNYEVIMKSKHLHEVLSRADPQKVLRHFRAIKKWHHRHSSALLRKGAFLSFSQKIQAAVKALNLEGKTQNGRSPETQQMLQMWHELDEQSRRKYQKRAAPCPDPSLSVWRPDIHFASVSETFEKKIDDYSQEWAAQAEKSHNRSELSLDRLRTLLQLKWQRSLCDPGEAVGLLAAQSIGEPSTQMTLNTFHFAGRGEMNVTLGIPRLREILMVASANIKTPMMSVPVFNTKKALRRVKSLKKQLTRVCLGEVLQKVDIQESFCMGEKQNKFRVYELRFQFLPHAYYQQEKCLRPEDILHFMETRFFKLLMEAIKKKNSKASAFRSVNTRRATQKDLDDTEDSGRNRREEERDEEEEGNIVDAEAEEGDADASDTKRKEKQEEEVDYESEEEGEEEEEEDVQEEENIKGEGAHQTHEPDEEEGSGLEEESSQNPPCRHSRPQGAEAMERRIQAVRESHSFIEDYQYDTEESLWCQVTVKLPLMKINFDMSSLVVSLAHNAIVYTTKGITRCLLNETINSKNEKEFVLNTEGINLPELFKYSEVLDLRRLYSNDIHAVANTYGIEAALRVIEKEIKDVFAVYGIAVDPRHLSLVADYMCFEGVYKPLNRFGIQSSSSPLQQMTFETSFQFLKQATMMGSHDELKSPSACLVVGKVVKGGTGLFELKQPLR
# label = T if IC50 < 300 µM else F

Take a look at these entries with their results.
C[C@@]1(O)[C@H](O)[C@@H](COP(=O)(O)OP(=O)(O)OP(=O)(O)O)O[C@H]1n1cnc2c(N)ncnc21 [2′CMeATP] : T
Nc1nc2c(ncn2[C@@H]2O[C@H](COP(=O)(O)OP(=O)(O)OP(=O)(O)O)C[C@H]2O)c(=O)[nH]1 [3′deoxyGTP] : T
C[C@@]1(O)[C@H](O)[C@@H](COP(=O)(O)OP(=O)(O)OP(=O)(O)O)O[C@H]1n1ccc(=O)[nH]c1=O [2′CMeUTP] : F

Now consider the entry below.
Consider C[C@@]1(O)[C@H](O)[C@@H](COP(=O)(O)OP(=O)(O)OP(=O)(O)O)O[C@H]1n1ccc(N)nc1=O [2′CMeCTP] . Does its IC50 lie strictly below 300 µM?
T

====

target: Recombinant human DNA polymerase beta (Homo sapiens); assay: Inhibition of human DNA polymerase beta; settings: triphosphate form of the compound tested; read-out: Mean IC50 ± SD for DNA Pol β
Below: a set of entries, each annotated with reported IC50.

Consider the worked cases shown below.
C[C@@]1(O)[C@H](O)[C@@H](COP(=O)(O)OP(=O)(O)OP(=O)(O)O)O[C@H]1n1cnc2c(=O)[nH]c(N)nc21 : > 200 µM
CC(C)OC(=O)[C@H](C)N[P@](=O)(OC[C@H]1O[C@@](C#N)(c2ccc3c(N)ncnn23)[C@](C)(O)[C@@H]1OC(=O)C(C)C)Oc1ccccc1 : > 200 µM
[N-]=[N+]=N[C@]1(CO)O[C@@H](n2ccc(N)nc2=O)[C@H](O)[C@@H]1O : > 200 µM

Tell me the measured IC50 of CC(C)OC(=O)[C@H](C)N[P@](=O)(OC[C@H]1O[C@@H](n2ccc(=O)[nH]c2=O)[C@](C)(F)[C@@H]1O)Oc1ccccc1 , please.
> 200 µM

# get_value(readout='IC50', item= C[C@@]1(O)[C@H](O)[C@@H](CO)O[C@H]1n1ccc(N)nc1=O )
> 200 µM

# query: IC50 of entry CCOc1nc(N)nc2c1ncn2[C@@H]1O[C@@H]2COP(=O)(OC(C)C)O[C@H]2[C@@]1(C)F (some centres unmarked)
> 200 µM

Which IC50 reading was recorded for the molecule Cc1cn([C@H]2CC[C@@H](COP(=O)(O)OP(=O)(O)OP(=O)(O)O)O2)c(=O)[nH]c1=O ?
1.9 µM

Need IC50 of C[C@@]1(F)[C@H](O)[C@@H](CO)O[C@H]1n1ccc(N)nc1=O , thanks.
> 200 µM

====

tested on: Quiescent PBMCs; experiment: Cytotoxicity in quiescent PBMCs, 5 days; settings: read-out: Mean CC50 ± SD in PBMCs Quiescent; 5 days
Metric: CC50

O=c1[nH]cc(F)c(=O)[nH]1 : > 100 µM

Endpoint output: CC50 of Nc1ccn([C@H]2CC[C@@H](CO)O2)c(=O)n1 . Value?
> 100 µM
